# Protocol Details: chemical genetic growth profiling, strain panel (AID 1159580);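 further: tested at 20 µM; growth read once vehicle control cultures reached saturation at 30 °C; 1 = growth at the plate median or of vehicle wells; lower values mean less growth of the strain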
# Study Conditions: S. cerevisiae deletion strains, growth OD, locus YLR330W, strain CHS5, stronger effect = lower value
The whole screen tested about 5,500 compounds, of which about 2,000 (36%) were called active. Roughly 18% stayed inconclusive and do not appear here. Some of the results follow.
Known normalized growth of a selection of compounds
Number only, please.

Consider the following illustrative entries.
CCCCCCOc1ccccc1C(N)=O : 0.355
O=C1NC(=O)C(=O)C(=O)N1 : 1.01

-- ask Endpoint output: normalized growth of C=C1C(C)C2C(Cc3ccccc3)NC(=O)C23OC(=O)/C=C/C(O)CCCC(C)C/C=C/C3C1O (stereo not drawn) . Value?
-- reply 1.01

-- ask Endpoint output: normalized growth of CC(C)NCC(O)c1cc(O)cc(O)c1 (stereo not drawn) . Value?
-- reply 0.998

-- ask Endpoint output: normalized growth of O=C(O)c1cc2cc(Cc3cccnc3)ccc2o1 . Value?
-- reply 1.01

-- ask Endpoint output: normalized growth of Nc1nc2ncc(=O)[nH]c2c(=O)[nH]1 . Value?
-- reply 0.992

-- ask Endpoint output: normalized growth of CCCCNc1ccc(C(=O)OCCN(C)C)cc1 . Value?
-- reply 1

====

# Protocol Details: chemical genetic growth profiling, strain panel (AID 1159580);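 further: tested at 20 µM; growth read once vehicle control cultures reached saturation at 30 °C; 1 = growth at the plate median or of vehicle wells; lower values mean less growth of the strain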
# Study Conditions: S. cerevisiae deletion strains, growth OD, locus YIL066C, strain RNR3, stronger effect = lower value
About 2,000 (36%) of roughly 5,500 compounds were called active. Another 18% or so got no clear call; they are omitted. The list shows a part of the results.
Known normalized growth of a selection of compounds

Consider the following illustrative entries.
CC(=O)OC1CCC2(C)C(=CC=C3C2CCC2(C)C3CCC2C(C)/C=C/C(C)C(C)C)C1(C)C (stereo not given) : 1.03 (inactive)
O=C(O)CN1C(=O)c2cccc3cccc(c23)C1=O : 1.01 (inactive)
CC1(C)OC(=O)C=CC2(C)C1CC(O)C1(C)C2CCC2(C)C(c3ccoc3)OC(=O)C3OC321 (stereo not given) : 1.01 (inactive)
NC[C@@H]1CC[C@@H](N)[C@@H](O[C@H]2[C@H](O)[C@@H](O[C@H]3O[C@H](CO)[C@@H](O)[C@H](N)[C@H]3O)[C@H](N)C[C@@H]2N)O1 : 0.995 (inactive)

Now take the following compound into account.
-- ask Endpoint output: normalized growth of Cn1c(=O)c2[nH]cnc2n(C)c1=O . Value?
-- reply 0.989 (inactive)

====

Known normalized growth of a selection of compounds
# Protocol Details: chemical genetic growth profiling, strain panel (AID 1159580);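 further: tested at 20 µM; growth read once vehicle control cultures reached saturation at 30 °C; 1 = growth at the plate median or of vehicle wells; lower values mean less growth of the strain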
# Study Conditions: S. cerevisiae deletion strains, growth OD, locus YPL031C, strain PHO85, stronger effect = lower value
The whole screen tested about 5,500 compounds, of which about 2,000 (36%) were called active. Not shown: some 18% with an inconclusive outcome. The list shows a part of the results.

OC(=Cc1nc2ccccc2nc1C=C(O)c1ccc(Cl)cc1)c1ccc(Cl)cc1 : 0.843 (inactive)

Now take the following compound into account.
-- ask Endpoint output: normalized growth of O=C(Nc1ccc(Cl)cc1)OCCSc1nc2ccccc2s1 . Value?
-- reply 0.955 (inactive)

====

Known normalized growth of a selection of compounds
# Protocol Details: chemical genetic growth profiling, strain panel (AID 1159580);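 further: tested at 20 µM; growth read once vehicle control cultures reached saturation at 30 °C; 1 = growth at the plate median or of vehicle wells; lower values mean less growth of the strain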
# Study Conditions: S. cerevisiae deletion strains, growth OD, locus YNL322C, strain KRE1 (second series), stronger effect = lower value
Hit rate of the full screen: of about 5,500 compounds, about 2,000 (36%) were called active. About 18% were inconclusive and are not listed. The list shows a part of the results.

Consider the following illustrative entries.
Cc1c(S(=O)(=O)O)oc2c1C(=O)C(=O)c1c-2ccc2c1CCCC2(C)C : 0.916 (inactive)
C=C1C(=O)OC2CC1C(OC(C)=O)C/C(C)=C/CC/C(C)=C/CC[C@]2(C)O (stereo partly specified) : 1.01 (inactive)
O=C(O)CN(CC(=O)O)Cc1cc2c(-c3ccccc3C(=O)O)c3cc(CN(CC(=O)O)CC(=O)O)c(=O)cc-3oc2cc1O : 0.967 (inactive)

-- ask Endpoint output: normalized growth of NC(=O)c1cccc(N)c1 . Value?
-- reply 0.968 (inactive)

-- ask Endpoint output: normalized growth of CC(C)NC[C@H](O)COc1cccc2ccccc12 . Value?
-- reply 0.977 (inactive)
